Hello, the source for this data is paper PMC7265341, in case you need it.

Target: CDK10/Cyclin L2 (Homo sapiens, UniProt Q15131)
Sequence (Q15131 whole entry): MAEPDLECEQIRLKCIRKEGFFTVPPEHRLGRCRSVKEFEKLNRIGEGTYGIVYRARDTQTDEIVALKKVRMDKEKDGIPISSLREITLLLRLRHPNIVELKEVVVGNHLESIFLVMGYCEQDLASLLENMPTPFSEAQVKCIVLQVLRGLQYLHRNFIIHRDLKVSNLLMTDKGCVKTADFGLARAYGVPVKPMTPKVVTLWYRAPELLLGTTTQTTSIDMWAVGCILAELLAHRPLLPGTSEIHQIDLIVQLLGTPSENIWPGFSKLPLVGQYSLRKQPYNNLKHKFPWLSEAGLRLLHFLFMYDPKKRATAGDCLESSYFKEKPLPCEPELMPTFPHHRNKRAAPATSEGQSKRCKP
Experiment: NanoBRET live-cell target engagement, CDK10-NanoLuc/Cyclin L2 in HEK-293
Conditions: read-out: Inhibition at 10µM (%) Replicate 1, CDK10/L2; 10µM
measuredEndpoint: inhibition at 10 µM

>>> result("CCCCOc1c(C(=O)c2c(F)cc(C)cc2F)c[nH]c2nncc1-2")
"5.3%"
>>> result("CCN1CCN(Cc2ccc(NC(=O)Nc3ccc(Oc4cc(NC)ncn4)cc3)cc2C(F)(F)F)CC1")
"74.4%"
>>> result("O=C(NC1CCNCC1)c1[nH]ncc1NC(=O)c1c(Cl)cccc1Cl")
"77.8%"
>>> result("COc1cc(F)ccc1-c1ncnc(Nc2cccc(C[S@](C)(=N)=O)c2)n1")
"9.2%"
>>> result("COc1cc(F)ccc1-c1cc(Nc2cc(CS(C)(=N)=O)ccn2)ncc1F (stereo not drawn)")
"38.6%"
>>> result("Cc1ncc(-c2ccnc(Nc3ccc(S(C)(=O)=O)cc3)n2)n1C(C)C")
"63.3%"
>>> result("CC(C)c1cnn2c(NCc3ccccc3)cc(NCCCCCCN)nc12")
"25.6%"
>>> result("CCN1CCN(Cc2ccc(Nc3ncc(F)c(-c4cc(F)c5nc(C)n(C(C)C)c5c4)n3)nc2)CC1")
"21.5%"
>>> result("C[C@H]1CC[C@H](n2c3cnccc3c3cnc(Nc4ccc5c(n4)CCN(C(=O)CO)C5)nc32)CC1")
"1.6%"

----------
Molecular target: CDK15/Cyclin Y (Homo sapiens)
Sequence (Q96Q40 whole entry): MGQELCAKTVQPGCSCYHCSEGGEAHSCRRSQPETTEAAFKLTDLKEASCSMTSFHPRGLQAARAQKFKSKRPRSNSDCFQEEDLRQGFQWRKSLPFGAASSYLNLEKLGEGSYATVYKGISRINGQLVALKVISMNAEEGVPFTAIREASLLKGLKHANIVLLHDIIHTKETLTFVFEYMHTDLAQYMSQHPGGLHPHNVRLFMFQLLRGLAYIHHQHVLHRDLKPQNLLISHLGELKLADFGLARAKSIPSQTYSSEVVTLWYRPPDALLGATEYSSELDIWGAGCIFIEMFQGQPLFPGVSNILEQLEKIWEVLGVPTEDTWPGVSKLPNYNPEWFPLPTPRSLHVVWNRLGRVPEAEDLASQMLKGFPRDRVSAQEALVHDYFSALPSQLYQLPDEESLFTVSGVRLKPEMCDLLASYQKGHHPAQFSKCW
Sequence (Q8ND76 whole entry partner): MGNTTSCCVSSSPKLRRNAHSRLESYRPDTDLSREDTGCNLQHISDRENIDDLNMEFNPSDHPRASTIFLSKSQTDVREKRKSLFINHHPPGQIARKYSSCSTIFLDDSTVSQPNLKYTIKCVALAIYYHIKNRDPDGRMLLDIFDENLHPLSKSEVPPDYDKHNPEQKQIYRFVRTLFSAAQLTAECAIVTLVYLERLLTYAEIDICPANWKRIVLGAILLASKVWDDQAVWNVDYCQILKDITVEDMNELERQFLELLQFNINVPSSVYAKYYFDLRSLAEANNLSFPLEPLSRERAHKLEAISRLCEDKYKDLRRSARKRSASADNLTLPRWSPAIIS
Experiment: NanoBRET live-cell target engagement, NanoLuc-CDK15/Cyclin Y in HEK-293
Type: binding
Conditions: CDK15/Y; read-out: IC50 (nM) Replicate 3
measuredEndpoint: IC50 (nM)

>>> readoutnumber("C[C@H]1CC[C@H](n2c3cnccc3c3cnc(Nc4ccc5c(n4)CCN(C(=O)CO)C5)nc32)CC1")
901

----------
Biological target: CDK18/Cyclin Y (Homo sapiens)
Sequence (Q07002 whole entry, one chain of several): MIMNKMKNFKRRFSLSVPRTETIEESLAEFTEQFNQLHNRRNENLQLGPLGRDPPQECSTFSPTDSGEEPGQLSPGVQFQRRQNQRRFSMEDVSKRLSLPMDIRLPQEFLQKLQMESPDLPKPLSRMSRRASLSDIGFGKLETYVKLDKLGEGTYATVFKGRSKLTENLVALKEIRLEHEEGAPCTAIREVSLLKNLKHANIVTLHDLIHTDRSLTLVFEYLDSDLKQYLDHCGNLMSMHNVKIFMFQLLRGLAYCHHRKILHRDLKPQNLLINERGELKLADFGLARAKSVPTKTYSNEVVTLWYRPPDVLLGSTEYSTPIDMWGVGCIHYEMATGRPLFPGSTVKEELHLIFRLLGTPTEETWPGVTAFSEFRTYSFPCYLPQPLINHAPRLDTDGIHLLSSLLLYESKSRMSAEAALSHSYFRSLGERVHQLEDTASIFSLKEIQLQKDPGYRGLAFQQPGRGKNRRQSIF
Test: NanoBRET live-cell target engagement, CDK18-NanoLuc/Cyclin Y in HEK-293
Format: binding
Conditions: 10µM; independent experiment 2
Reported CDK18/Y Inhibition at 10µM (%) values are given for each entry in this list.
measuredEndpoint: CDK18/Y Inhibition at 10µM (%)

>>> readoutnumber("Cc1c(Br)c(Br)c2c3c1nc(N1CCNCC1)n3CCC2.Cl [SEL 120-34A]")
31.9
>>> readoutnumber("O=C1NC(=NCc2cccs2)S/C1=C\\c1ccc2ncccc2c1 [RO-3306]")
30.7
>>> readoutnumber("O=C1NCCc2[nH]c(-c3ccncc3)cc21 [PHA-767491]")
34.7
>>> readoutnumber("CN(C)C/C=C/C(=O)Nc1ccc(C(=O)Nc2cccc(Nc3ncc(Cl)c(-c4c[nH]c5ccccc45)n3)c2)cc1 [THZ1]")
24.3

----------
Reported pIC50 values are given for each entry in this list.
Biological target: CDK4/Cyclin D1 (Homo sapiens, UniProt P11802)
Sequence (P11802 whole entry): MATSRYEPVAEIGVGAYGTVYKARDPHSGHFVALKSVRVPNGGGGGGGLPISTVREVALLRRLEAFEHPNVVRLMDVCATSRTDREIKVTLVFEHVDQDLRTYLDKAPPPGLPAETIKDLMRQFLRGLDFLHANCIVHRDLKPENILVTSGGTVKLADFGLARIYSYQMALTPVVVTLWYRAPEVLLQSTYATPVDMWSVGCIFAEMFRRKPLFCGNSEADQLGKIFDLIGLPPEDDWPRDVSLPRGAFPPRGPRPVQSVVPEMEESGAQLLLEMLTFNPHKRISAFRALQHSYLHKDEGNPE
Sequence (P24385 whole entry partner): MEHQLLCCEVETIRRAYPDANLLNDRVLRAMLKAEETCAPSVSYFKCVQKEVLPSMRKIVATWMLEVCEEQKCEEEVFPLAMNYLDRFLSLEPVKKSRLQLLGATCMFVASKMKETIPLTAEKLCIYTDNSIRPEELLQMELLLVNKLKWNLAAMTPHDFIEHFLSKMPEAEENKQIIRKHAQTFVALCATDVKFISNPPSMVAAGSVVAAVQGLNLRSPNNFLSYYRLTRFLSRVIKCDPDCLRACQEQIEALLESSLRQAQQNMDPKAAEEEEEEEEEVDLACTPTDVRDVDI
Assay: NanoBRET live-cell target engagement, NanoLuc-CDK4/Cyclin D1 in HEK-293
Type: binding
Settings: CDK4/D1; average (± SEM where n=3); read-out: IC50
pIC50: −log10 of the molar value.
measuredEndpoint: pIC50

>>> readoutnumber("CN1CCC(c2c(O)cc(O)c3c(=O)cc(-c4ccccc4Cl)oc23)C1CO (centres unmarked) [P276-00]")
6.40
>>> readoutnumber("CC(C)c1cnn2c(NCc3ccccc3)cc(NC[C@H]3CCNC[C@@H]3O)nc12 [CT7001]")
7.38
>>> readoutnumber("CN1CCN(c2ccc(Nc3ncc4cc(C#N)c(=O)n(C5CCCC5)c4n3)cc2)CC1 [ON123300]")
8.05
>>> readoutnumber("CNc1nc(C)c(-c2nc(Nc3cccc(S(N)(=O)=O)c3)ncc2F)s1 [CDKI-73]")
7.92
>>> readoutnumber("CC(C)c1c2cc(-c3ccnc(N[C@H]4CC[C@H](NC5CCOCC5)CC4)n3)ccc2nn1C [LY2857785]")
7.40
